Assay: folding stability dG unfold from trypsin proteolysis; higher = more stable
Threshold check on folding stability dG unfold: at or above 2 kcal/mol gives 1, strictly below gives 0.

Exercise: Exam item: decide whether the reported folding stability dG unfold for SAGGSAELVSVDVELEGRYLRVRARFRLPDGREVEVEVRFSLPGVPPAPPVFPYRDPETGELRLGLSAGGSA [r15_335_TrMRF] is at least 2 kcal/mol.
Solution: 1

Exercise: Quick check: does SAGGELKLLFNFPSKEEAEEFAEALKKAYPNFEVEVEYDPETGLFYLTLKPKEIPPLSPEELEKLLESAGGS [r16_674_TrMRF] have folding stability dG unfold greater than or equal to 2 kcal/mol?
Solution: 1

Exercise: hey, is folding stability dG unfold for this one >= 2 kcal/mol? SAGGTIIINFTWSDIKDILDYLKDNKDWKITIWMGNKPVEYPLDDLEEILQNIPMPPGQPFWIEITPSAGGS [r16_377_TrROS]
Solution: 1

Exercise: Is folding stability dG unfold for SAGGSAGGRWYIMIEIRFPGNGRQFSFMIPIPPGDEVDIKLDELAEWFGFPNVKVDIQVMPLEKSAGGSAGG [r6_722_TrROS] at or above 2 kcal/mol?
Solution: 1

Exercise: hey, is folding stability dG unfold for this one >= 2 kcal/mol? SAGGPPVIRFPTAEIPASGTIEDIVAAIERATGEPLPEELVEQILNGKTIEEIIELLKKRGYPVEYLSAGGS [r16_601_JUSTAS]
Solution: 1

---

In this section, each of the sequences is paired with its reported folding stability dG unfold.
Test: folding stability dG unfold from chymotrypsin proteolysis; higher = more stable
Just the number in kcal/mol, nothing appended.

Check out these entries, answers already filled in.
SEQUENCE_ENTRY: SAGGSAGGSELITLTEKASLAVGELNLPSPEELAKKKYPDVKPKNITVSTKPGEGLVTVTVDGKSAGGSAGG [r6_81_JUSTAS]
folding stability dG unfold, kcal/mol: 0.207
//
SEQUENCE_ENTRY: SAGGSAGGSAGGQPLLARPNDEPIVEVEISETTTLLPNGTVVTTYSVPKKGILTTVTLVSAGGSAGGSAGGS [r10_160_JUSTAS]
folding stability dG unfold, kcal/mol: -0.703

What the record says about SAGGSAGGNEIAEKLKKKYPNIKIKSVKINPKEGKIEIDLGFPKDAKPETIKKIEKEIEELAKKSAGGSAGG [r6_97_TrMRF] : folding stability dG unfold is 0.442

// folding stability dG unfold value for SAGGSATFEEALREVAEPTGAVPYVDPETGVAYVDFPDGKELEIEVPDGDRIEVRVLPDGRAVARGSAGGSA [r15_256_TrMRF] : -0.494

---

Here the recorded folding stability dG unfold is given for each entry.
Experiment: folding stability dG unfold (combined trypsin and chymotrypsin); higher = more stable
Express your answer in kcal/mol, writing the number without its unit.

In the examples that follow, each entry is paired with its recorded folding stability dG unfold.
SEQUENCE_ENTRY: SAGGSAGGSAGSSSISRETFDPETGLRYVYDPETDTITVIDLSNNKVVKTTPVGPEELERSAGGSAGGSAGG [r17_271_JUSTAS]
folding stability dG unfold, kcal/mol: 1.55
--
SEQUENCE_ENTRY: SAGGSSLPPEYTVTEVEREFTTPEDVAEARAAAEAAAAAGAEVLEVTVERPEDGSYRVRFTLATPRSAGGSA [r2_350_JUSTAS]
folding stability dG unfold, kcal/mol: 0.0151
--
SEQUENCE_ENTRY: SAGGSGIDFDIEFHNNHITIDIYMYDPNGQPIFEMTMTIPIPPVPPPPVPEVKVDDPEEAKEAKNQSAGGSA [r2_332_TrROS]
folding stability dG unfold, kcal/mol: 1.89
--
SEQUENCE_ENTRY: SAGMKLTVTITDPATGKTYTITVKPGGETTVTNGSSTTSISIPTSDPKKVEELAEEIEPKGYTATITLESAG [r5_791_JUSTAS]
folding stability dG unfold, kcal/mol: 1.3

Documented folding stability dG unfold of SLEIAKELGFPIKRFEPTEMDPDNGRQKWEAYIPMPNRTVRVDIDIRYEPDPNGKRQPKIQIDSIEFMPPSA [r9_613_TrROS] : -0.242

Lookup result for SAGGSAGGSAGEEFIKKIPPGAEVKPITPLESEGKVYVKITVKKKDENGKWTEEEFIFKVSAGGSAGGSAGG [r17_140_JUSTAS] ; measured folding stability dG unfold: 1.28

// sample SAGGSAGGSMTETVVLPYPLPPGVPFHIELPDGSKSVSADPETGTLTVLVKKGTEEAVKEALASAGGSAGGS [r12_476_JUSTAS] , its folding stability dG unfold was -0.989

---

Form field: folding stability dG unfold (one value per entry).
Assay: folding stability dG unfold from chymotrypsin proteolysis; higher = more stable
Return type: number; implicit unit kcal/mol.

Examples from the recorded data:
SEQUENCE_ENTRY: ADFRVTEESPEGVVTQTTTVALPDGTSRTLTYSYSKDASLTSVTVSYTPDSVTTTTTPVTPVPPGSPELAGS [r1_53_JUSTAS]
UNITS_OF_MEASURE: kcal/mol
REPORTED: 0.24

SEQUENCE_ENTRY: SAGGSAGGSSSSSVVTKPLPEEPLLVVTTTLPPSTPPGTTSTTTIIEPETGKVLETTDINIPSSAGGSAGGS [r12_564_JUSTAS]
UNITS_OF_MEASURE: kcal/mol
REPORTED: 0.954

SEQUENCE_ENTRY: SAGGDNFKIEIQFFPDGHIFILIKWPNGDWILIPVPIEYPVPKRDPDGEVKEPGPVTHTHLFLIPANDSAGG [r13_236_TrROS]
UNITS_OF_MEASURE: kcal/mol
REPORTED: 3.21

SEQUENCE_ENTRY: SAGMKYTAEVKVKEKDKEIDVTVSDDATFTDPEGKETTFKIGSEEELKKALEEIFPEKYPYEILSVKVLSAG [r14_41_JUSTAS]
UNITS_OF_MEASURE: kcal/mol
REPORTED: 0.156

SEQUENCE_ENTRY: SAGGDWMLVIEIEIEGQPTPDGQIKVEISIEIELVRPPPPPITPWDRMAEEARDKNPNIPPDDPEAMTSAGG [r13_136_TrROS]
UNITS_OF_MEASURE: kcal/mol
REPORTED: 1.7

SEQUENCE_ENTRY: SAGGGMTFNFTAPDGTPYEDVTTTPLPDGSTLVTVTQEDPKNPGVVTVTLIRLPSGADALEVTSGPVVSAGG [r13_370_JUSTAS]
UNITS_OF_MEASURE: kcal/mol
REPORTED: 0.803

SEQUENCE_ENTRY: PNFKIDIEIIKAEEVPPRPTDDGKPQPVRRIHIRIEVKGPPDQPPELANNIVEEIMAELQELGLPVHIHVWS [r1_305_TrROS]
UNITS_OF_MEASURE: kcal/mol
REPORTED: 1.91

SEQUENCE_ENTRY: SAGGSITSTTTLPDGTTVTTTVLPSGVTVVTTSTLDPATGTVSTTTTTLPPSSATTTTTTTTVPPLTSAGGS [r16_230_JUSTAS]
UNITS_OF_MEASURE: kcal/mol
REPORTED: 2.16

For this sequence ( SAGGSAGGSAGGPKIEVNEDGTVTITLEVDGKLVTKTVKVELEAPPVETVEFVKEGEEVSAGGSAGGSAGGS [r10_240_TrROS_Hall] ), measured folding stability dG unfold is 1.21

Lookup result for SAGGRIRIEYDPENGTITIYVPTPDGEITPDQVEEIAKLLMELWPNIEVEIEPHPNGMVRITIKIPPKSAGG [r13_291_TrROS] ; measured folding stability dG unfold: 3.81

The sequence SASPSETTTYTVELTSTDPSLTPEDLAERAREEFEAALPPGTRVEVEVVSVTPIPETGTTRYTIRITVRRSA [r9_706_JUSTAS] showed folding stability dG unfold equal to 4.26

According to the records, this sequence SAGMKKVEIVEEVKDPETNEPVILVRDKDTGELVKFHPNGKVTIYDLNDPNKAKVFEAKISDVLEELANSAG [r5_491_TrMRF] displays folding stability dG unfold of 1.28

For this sequence ( SAGGSAGGSAGTEIKIPPEFPDLPVKVYPIEVTLLGKGKPKKVILNVATTPDAIIAVDPESAGGSAGGSAGG [r11_21_TrMRF] ), measured folding stability dG unfold is -0.61

Entry SAGGSAGGSAGGSPKTILLEVNGRLVLVTVKDGKVEIRDLENPNKTYTFPPGAKILIVDSAGGSAGGSAGGS [r4_321_TrROS_Hall] , folding stability dG unfold reported as 1.91

Entry under test: SAGSMRTRKYEVERGEDEIVFPLPDGKVLRLPPDVGATVEVEYDPDGPPVRVTVRFPDGADYVLPYEELSAG [r5_45_JUSTAS] . Its folding stability dG unfold was 1.11

# folding stability dG unfold (sequence: SAGSAAIKALLEKHPKPEVIEVTRLPGSGTLVIKVDDEDHVVPTPPGGFTETLTVDENGNVLSVEPHPASAG [r5_329_JUSTAS] ) is 1.65

Sourced from the supplement of paper PMC12764529
